Test system: OVCAR-4 ovarian
test: NCI tumour cell line growth inhibition, 48 h; in the data active means GI50 below about 0.43 µM; inactive means the rest
Labels: active, inactive

cpd_smiles=FC(F)(c1ccc2ncccc2c1)c1nnc2ccc(-c3ccncc3)nn12 target_desc="OVCAR-4 ovarian" discrete_label=inactive
cpd_smiles=Nc1ccccc1C#C/C=C\C#Cc1ccc(OCCCNC(=O)c2cc3ccccc3[nH]2)cc1 target_desc="OVCAR-4 ovarian" discrete_label=inactive
cpd_smiles=COc1cc2c(c(OC)c1OC)-c1ncc3c(OC)c(OC)c(OC)cc3c1C2 target_desc="OVCAR-4 ovarian" discrete_label=inactive
cpd_smiles=Cc1ncc(C(=O)Nc2ccc(CN3CCN(C)CC3)c(C(F)(F)F)c2)cc1C#Cc1cnc2cccnn12 target_desc="OVCAR-4 ovarian" discrete_label=active
cpd_smiles=O=[N+]([O-])c1cc(Cl)c2[nH]c3c(Cl)cc([N+](=O)[O-])cc3c2c1 target_desc="OVCAR-4 ovarian" discrete_label=active
cpd_smiles=CCNc1cc(-c2cccc(OC(F)(F)F)c2)nc2ccc(N3CCCC3)cc12 target_desc="OVCAR-4 ovarian" discrete_label=inactive
cpd_smiles=COc1ccccc1C#Cc1ccccc1C#CCCCCO target_desc="OVCAR-4 ovarian" discrete_label=inactive
